Hey, just so you know, these numbers are from patent US9340506B2.

biological target: purified human recombinant GK (Homo sapiens (Human), UniProt P35557); test: Glucokinase activity assay (coupled enzymatic, G6PD/NADH absorbance at 340 nm); conditions: EC50 of % change in S0.5 of glucokinase for glucose, sigmoidal fit; read-out: EC50 (with respect to % ΔS0.5)
Sequence (P35557 whole entry): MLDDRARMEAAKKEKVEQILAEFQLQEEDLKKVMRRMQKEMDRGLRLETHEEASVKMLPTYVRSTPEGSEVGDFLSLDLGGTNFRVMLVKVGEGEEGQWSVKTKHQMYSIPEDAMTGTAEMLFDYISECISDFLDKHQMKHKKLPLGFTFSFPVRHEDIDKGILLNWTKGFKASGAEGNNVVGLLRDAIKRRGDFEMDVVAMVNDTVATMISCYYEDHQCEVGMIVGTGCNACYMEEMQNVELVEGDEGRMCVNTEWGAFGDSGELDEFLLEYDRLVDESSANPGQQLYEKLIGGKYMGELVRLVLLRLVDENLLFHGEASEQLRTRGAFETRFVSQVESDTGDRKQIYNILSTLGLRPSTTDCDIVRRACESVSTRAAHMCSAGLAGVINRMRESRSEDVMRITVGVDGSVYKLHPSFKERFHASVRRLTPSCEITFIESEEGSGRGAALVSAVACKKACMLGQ
Field: pEC50. Provide a value for each of the compounds that follow.
Give bare numbers, as −log10 of the molar value.

Look over these answered cases.
So the reported pEC50 for CC(C)(C(=O)O)c1ccc(Oc2cnc(NC(=O)C(OC3CCOCC3)c3ccc(S(=O)(=O)C4CC4)cc3)s2)cc1 (single isomer, unassigned; (+)) , on purified human recombinant GK (Homo sapiens (Human), UniProt P35557), turned out to be 7.03

So the reported pEC50 for O=C(NC1CC1)c1ccc(Oc2cnc(NC(=O)C(OC3CCOCC3)c3ccc(S(=O)(=O)C4CC4)cc3)s2)cc1 (stereo not shown) , on purified human recombinant GK (Homo sapiens (Human), UniProt P35557), turned out to be 6.89

So the reported pEC50 for O=C(O)c1cnn(-c2cnc(NC(=O)C(OC3CCOCC3)c3ccc(S(=O)(=O)C4CC4)cc3)s2)c1 (single isomer, unassigned; (+)) [Example G12A] , on purified human recombinant GK (Homo sapiens (Human), UniProt P35557), turned out to be 6.52

Each compound below has a recorded value; state its pEC50.
1. Cc1ccc(Oc2cnc(NC(=O)C(OC3CCOCC3)c3ccc(S(=O)(=O)C4CC4)cc3)s2)cc1C(=O)O (single isomer, unassigned; (+)) [Example G10A]
2. O=C(Nc1nccs1)C(OC1CCOCC1)c1ccc(S(=O)(=O)C2CC2)cc1 (stereo not shown)

6.64
5.85
